The reported measurements were obtained from patent US20090275070A1.

Listing of recorded GI50 by entry.
measuredTarget: Ba/F3 cells expressing p210Bcr-Abl-T315I (Homo sapiens, UniProt P00519, T315I, cells depend on it)
Construct: fused on or other part: P11274 (Breakpoint cluster region protein)
test: phenoresponse-based cellular assay (cell count and viability), Ba/F3 T315I test cells
Design: species or system murine
appliedConditions: concentration inhibiting growth of the cell line by 50% in the cellular assay, read-out: T315I (IC50 activity category)

smilesRepr	GI50
CN(/N=C/c1ccc(Nc2cccc(C(F)(F)F)c2)cn1)c1ncc(F)c(N2CCOCC2)n1	< 300 nM
Fc1cnc(N/N=C/c2ccc(Nc3cccc(C(F)(F)F)c3)cn2)nc1NCC1CC1	< 300 nM
CN(C)c1cc(O)cc(Nc2ccc(/C=N/Nc3ncc(F)c(N4CCOCC4)n3)nc2)c1	< 1000 nM
O=C(Nc1cccc(C(F)(F)F)c1)c1cccc(/C=N/Nc2ncc(F)c(N3CCOCC3)n2)n1	> 10000 nM
O=C(Nc1cccc(C(F)(F)F)c1)c1cc(Cl)c(O)c(/C=N\Nc2ncc(F)c(N3CCOCC3)n2)c1	< 1000 nM

---

measuredTarget: Ba/F3 cells expressing p210Bcr-Abl-T315I (Homo sapiens, UniProt P00519, T315I, cells depend on it)
Construct: fused on or other part: P11274 (Breakpoint cluster region protein)
test: phenoresponse-based cellular assay (cell count and viability), Ba/F3 T315I test cells;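 further: cells counted by automated microcell imaging, viability scored by trypan blue exclusion, phenoresponse judged against parental Ba/F3 and Ba/F3 carrying wild-type p210Bcr-Abl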
Design: species or system murine
appliedConditions: concentration inhibiting growth of the cell line by 50% in the cellular assay, read-out: T315I (IC50 activity category)

smilesRepr	GI50
Cc1cc(Nc2ccc(/C=N/Nc3ncc(F)c(N4CCOCC4)n3)nc2)cc(N2CCNCC2)c1	< 1 µM
Fc1cnc(N/N=C/c2ccc(Nc3cccc(C(F)(F)F)c3)cn2)nc1-c1cncc(-c2ccccc2)c1	< 1 µM
Oc1c(Cl)cc(-c2cccc(C(F)(F)F)c2)cc1/C=N/Nc1ncc(F)c(N2CCOCC2)n1	< 0.3 µM
